# Test system: MOLT-4 leukemia
# assay text: NCI-60 one-dose screen, 48 h (100 = growth as untreated, 0 = no growth, -100 = all killed)
# condition: 10 µM unless noted
About 83,000 compounds went through this panel and 20% of them were active in at least one assay; those are over-represented in the sample as a whole. Active and inactive are the calls of the source. Rule for the calls: active = growth percent below 10; inactive = the rest.
Would you kindly list growth for each of these compounds?

Check out these entries, answers already filled in.
O=C1/C(=C/c2cc(F)cc(F)c2)Cc2cc(F)cc(F)c21 ... 87.3% (inactive)
O=[N+]([O-])c1ccc(Sc2nc(Cl)nc(NC3CCCC3)n2)cc1 ... -30.1% [100 µM] (active)
CCN(CC)c1ccc(/C=N/N=C(N)N)cc1 ... 49.1% (inactive)

Hey, can you go through the list below and give me growth for every item?
1. O=C(NO)c1ccc(CNc2cccc3nc(C4CC4)n(-c4ccccc4)c(=O)c23)cc1
2. COc1ccc(CC2c3cc(OC)c(OC)cc3CC[N+]2(C)CCC(=O)OCCCCCOC(=O)CC[N+]2(C)CCc3cc(OC)c(OC)cc3C2Cc2ccc(OC)c(OC)c2)cc1OC (stereo unspecified)
3. O=C1C=CN2C(=O)CC=CC2[C@@H]1O (stereo partly specified)
4. NC(N)=N/N=C/c1ccc(Cl)cc1
5. O=C(NNC(=O)c1cccc(Cl)c1)c1ccccc1
6. O=C(Cc1ccc([N+](=O)[O-])cc1)Oc1ccccc1
7. O=C1Nc2ccc(Br)cc2/C1=N/c1nc(-c2ccccc2)cs1
8. CN1C(=O)C(C(=O)/C=C/c2ccccc2C(=O)O)C(=O)N(C)C1=O

Response:
1. -21.7% (active)
2. 80.4% (inactive)
3. 109% (inactive)
4. 53.9% (inactive)
5. 100% (inactive)
6. 108% (inactive)
7. 59.2% (inactive)
8. 97.1% (inactive)

Provide growth for all items below, preserving their order.
1. COc1ccccc1CNCCCN1C(=O)c2ccc3c4c(ccc(c24)C1=O)C(=O)N(CCCCNCCCN)C3=O
2. NC(=O)N/N=C\c1ccc([N+](=O)[O-])o1
3. O=C(Nc1cccc(-n2ccc3c(NC(=O)c4ccccc4)nccc32)c1)c1ccc(N2CCOCC2)c(C(F)(F)F)c1
4. COC(=O)[C@H](Cc1cn(C)cn1)NC(=O)[C@H](CC(C)C)NC(=O)Nc1cc(C(F)(F)F)cc(C(F)(F)F)c1
5. CCOC(=O)CCN(CCC(=O)OCC)c1ccccc1
6. NC(CCC(=O)NC(CS)C(=O)NCC(=O)O)C(=O)O (stereo unspecified)
7. O=c1nc(-c2ccccc2)c2cc(-c3ccc(N4CCOCC4)cc3)ccc2[nH]1
8. COc1cc(C2CC(c3cccc(Nc4ccnc5cc(Cl)ccc45)c3)=NN2C=O)cc(OC)c1OC (stereo unspecified)

Response:
1: -21.7% (active); 2: 103% (inactive); 3: 17.4% (inactive); 4: -57.2% [100 µM] (active); 5: 96.5% (inactive); 6: 102% (inactive); 7: 71.2% (inactive); 8: 9.97% (active)

Please report growth for every entry that follows.
1. O=[N+]([O-])c1ccc(SSc2ccc([N+](=O)[O-])cc2Cl)c(Cl)c1
2. CN(C)CCCn1c(=O)c2cc([N+](=O)[O-])ccc2c2cnc3[nH]ccc3c21

Response:
78.1% (inactive)
8.62% (active)

----------
# Tested on: T-47D breast
# assay text: NCI-60 one-dose screen, 48 h
# condition: 10 µM unless noted
# Method: Growth inhibition of the T-47D human tumor cell line is measured as a screen for anti-cancer activity. Cells are grown in 96 well plates and exposed to the test compound for 48 hours. Compounds are tested at a single concentration, which is 10^-5 M for most compounds. The reported endpoint is percent growth (GI% or GIPRCNT), where numbers from 0 - 100% represent growth inhibition, and numbers from -100% - 0 represent cell death. For example, a value of 40 represents 60% growth inhibition. […]
Compounds without any hit were thinned out: in the full panel of roughly 83,000, 20% have a hit. Calls of active or inactive are those of the source. Rule for the calls: active = growth percent below 10; inactive = the rest.
Pick one and only one: active, inactive

C=CCCCCOc1cccc(/C=C2\N=C3SCCCN3C2=O)c1 ... active
O=C1Nc2ccc(Cl)cc2/C1=C\c1c(-c2ccc(F)cc2)nc2ccccn12 ... active
CCCCCCCCCCCC1=NC(C)(C)CN1CCO ... inactive

Request: // return assay outcome for N#CCCn1cnc2c(N)ncnc21
Response: inactive

Request: What classification did COc1cc2ncnc(Nc3ccc(S(=O)(=O)Nc4cc(C)on4)cc3)c2cc1OCCCN1CCN(c2ccc([N+](=O)[O-])cc2)CC1 end up with in this test?
Response: inactive

Request: Which result was noted for this compound in the test: CCCCCCCCCCCC1=NC(C)(C)CN1C(C)C
Response: inactive

Request: Could you check what this test reported for CC[C@]1(O)C[C@H]2CN(CCc3c([nH]c4ccccc34)C(C(=O)OC)(c3cc4c(cc3OC)N(C)[C@H]3[C@@](O)(C(=O)OC)[C@H](OC(C)=O)[C@]5(CC)[C@@H]6C[C@@H]6CN6CC[C@]43[C@@H]65)C2)C1 (some centres not stated) ?
Response: inactive

Request: Can you look up the reported call for O=C(O)c1cc2cc(OCc3ccccc3)ccc2[nH]1 for me?
Response: inactive

Request: Dear all, I need the recorded test outcome for Clc1ccc(-c2cnc3c(-c4ccnc(N5CCNCC5)c4)cnn3c2)cc1 , thank you.
Response: active

----------
# Test system: HCC-2998 colon
# assay text: NCI-60 one-dose screen, 48 h (100 = growth as untreated, 0 = no growth, -100 = all killed)
# condition: 10 µM unless noted
About 83,000 compounds went through this panel and 20% of them were active in at least one assay; those are over-represented in the sample as a whole.
endpoint label: growth (%)
Give bare numbers, in %.

Some solved entries appear below for comparison.
COC(=O)c1ccc2c(c1)nc(-c1ccc(Cl)cc1)n2-c1cc(C(C)(C)C)[nH]n1 ... 68.1
CCN(CCC#N)c1ccccc1 ... 109
O=C1Nc2ccc(Cl)cc2/C1=C\c1c(-c2ccc(F)cc2)nc2ccccn12 ... 44.7
O=C1Nc2ccc(Br)cc2/C1=N/c1nc(-c2ccccc2)cs1 ... 109
COc1ccc(C(=O)C(CN(C)C)c2ccc(OC)cc2)cc1 (configuration not stated) ... 117

I would be grateful if you could provide growth for each of the following entries.
1. CCOC(=O)CCN(CCC(=O)OCC)c1ccccc1
2. CCC(=O)NC1=C(Cl)C(=O)C(NC(=O)CC)=C(Cl)C1=O

Response:
119
103

----------
# System: BT-549 breast
# assay text: NCI-60 one-dose screen, 48 h (100 = growth as untreated, 0 = no growth, -100 = all killed)
# condition: 10 µM unless noted
# Experimental: Growth inhibition of the BT-549 human tumor cell line is measured as a screen for anti-cancer activity. Cells are grown in 96 well plates and exposed to the test compound for 48 hours. Compounds are tested at a single concentration, which is 10^-5 M for most compounds. The reported endpoint is percent growth (GI% or GIPRCNT), where numbers from 0 - 100% represent growth inhibition, and numbers from -100% - 0 represent cell death. For example, a value of 40 represents 60% growth inhibition. […]
This is part of a sample that, as a whole, favours compounds with a hit. Of some 83,000 tested, about 20% had one in any assay.
For each entry below, report its growth value.
Answers are plain numbers, in %.

Cc1ccc(C)c2c1SC1=NNC(Oc3ccc(Cl)cc3)=C(C#N)C(=N)N12 ... 107
Clc1cc2nc(-c3ccccc3)c(-c3ccccc3)nc2cc1Cl ... 118
O=C(NCCN1CCCCC1)n1cc(-c2ccncc2)c(-c2ccc(Cl)c(O)c2)n1 ... 68.9
CCOCCNc1ccc(S(=O)(=O)c2ccc(N)cc2)cc1N ... 107
C[C@@H]1CC2C3CCC4=CC(=O)C=C[C@]4(C)[C@@]3(Cl)[C@@H](O)C[C@]2(C)[C@@]1(OC(=O)c1ccco1)C(=O)CCl (some centres not stated) ... 27.9

Items follow; give growth for each.
1. COc1cc(NCCC2CCCCN2)c2ncccc2c1OC (configuration not stated)
2. O=C(Nc1ccc(Br)cc1)c1ccc(Cl)c(Cl)c1
3. Cc1cc2nc(CN)[nH]c2cc1C
4. Cc1cc(Nc2c3ccccc3nc3ccccc23)ccc1NS(C)(=O)=O
5. CCOC(OCC)c1cnc2nc(NC(C)=O)[nH]c(=O)c2n1
6. Cc1ccc(NC(=O)c2sc3nc4c(cc3c2N)C(=O)CCC4)cc1Cl
7. COc1ccc(/C(C)=N/NC(=O)CSc2nc3ccccc3c(=O)n2CCc2ccc(S(N)(=O)=O)cc2)cc1

Response:
1. 91.6
2. 60.6
3. 101
4. 78.7
5. 112
6. 115
7. 64.2

// each compound listed below needs its growth
1. NS(=O)(=O)c1ccc(CCn2c(SCC(=O)N/N=C/c3cc4ccccc4[nH]3)nc3ccccc3c2=O)cc1
2. Clc1cc(Cl)cc(-c2cnc3nonc3n2)c1
3. C[N+](C)(C)CCCCCCCCCC[N+](C)(C)C
4. CC(=O)OC[C@H]1O[C@@H](n2c(=O)cc(N)[nH]c2=O)C(OC(C)=O)[C@@H]1OC(C)=O (some centres not stated)
5. CCN(CCC#N)c1ccccc1
6. COc1ccc(-c2cc(-c3ccc(OC)cc3)c3sc(=O)[nH]c3n2)cc1
7. COc1ccc2[nH]cc(C3(c4c[nH]c5ccc(OC)cc45)C(=O)Nc4ccc(Cl)cc43)c2c1
8. COc1cc2ncnc(Nc3ccc(S(=O)(=O)Nc4nccs4)cc3)c2cc1OCCCN1CCOCC1

Response:
[74.3, 95.6, 78.7, 92.8, 110, 92.9, 93.7, 119]

Please supply growth for each of the following items, keeping them in order.
1. COc1ccc2c(c1)OC1=C(C(=O)OC1)C2c1cc(OC)c2c(c1)OCCO2 (configuration not stated)
2. COc1ccc(CNc2c3ccccc3nc3ccccc23)cc1F

Response:
1. 24.6
2. 49.5

Data provenance: PubChem BioAssay (NCI)
